Exercise: for every item that follows, state its recorded Selectivity index U87.
Tested on: U87 (p53 wild-type) glioblastoma cells
Experiment: MTT cytotoxic activity assay, U87 cells
Assay type: cell-based, human
Conditions: Non-radioactive; SI = IC50 MRC5/IC50 tumor cell
Give bare numbers.

Below are worked cases with known answers.
{"Molecule": "F[P-](F)(F)(F)(F)F.O=C([O-])c1ccccn1.[Ru+2].c1ccc(-c2ccccn2)nc1.c1ccc(P(CCCCP(c2ccccc2)c2ccccc2)c2ccccc2)cc1 [[Ru(pic)(bipy)(dppb)]PF6 (1), [Ru(pic)(bipy)(dppb)]PF6]", "Selectivity index U87": 2.55}
{"Molecule": "N.N.[Cl][Pt][Cl] [Cisplatin, reference compound]", "Selectivity index U87": 2.87}
{"Molecule": "F[P-](F)(F)(F)(F)F.O=C([O-])c1ccccn1.[Fe+2].[Ru+2].c1ccc(-c2ccccn2)nc1.c1ccc(P(c2ccccc2)[c-]2cccc2)cc1.c1ccc(P(c2ccccc2)[c-]2cccc2)cc1 [[Ru(pic)(bipy)(dppf)]PF6 (3), [Ru(pic)(bipy)(dppf)]PF6]", "Selectivity index U87": 2.23}
{"Molecule": "F[P-](F)(F)(F)(F)F.O=C([O-])c1ccccn1.[Ru+2].c1ccc(-c2ccccn2)nc1.c1ccc(P(CCCP(c2ccccc2)c2ccccc2)c2ccccc2)cc1 [[Ru(pic)(bipy)(dppp)]PF6 (4), [Ru(pic)(bipy)(dppp)]PF6]", "Selectivity index U87": 0.29}

Now for another entry.
[in] Give measured Selectivity index U87 for F[P-](F)(F)(F)(F)F.O=C([O-])c1ccccn1.[Ru+2].c1ccc(-c2ccccn2)nc1.c1ccc(P(CCP(c2ccccc2)c2ccccc2)c2ccccc2)cc1 [[Ru(pic)(bipy)(dppe)]PF6 (2), [Ru(pic)(bipy)(dppe)]PF6] (U87 (p53 wild-type) glioblastoma cells).
[out] 2.95

* * *

Would you mind telling me the reported IC50 of each entry?
Test system: T98 (p53 mutant) glioblastoma cells
Test: MTT cytotoxic activity assay, T98 cells
Assay type: cell-based, human
Conditions: non-radioactive compounds; 24 h exposure; MTT
Answers are plain numbers, in µM.

Batch lookup, IC50 per entry.
1. N.N.[Cl][Pt][Cl] [Cisplatin, reference compound]
2. F[P-](F)(F)(F)(F)F.O=C([O-])c1ccccn1.[Ru+2].c1ccc(-c2ccccn2)nc1.c1ccc(P(CCCCP(c2ccccc2)c2ccccc2)c2ccccc2)cc1 [[Ru(pic)(bipy)(dppb)]PF6 (1), [Ru(pic)(bipy)(dppb)]PF6]
3. F[P-](F)(F)(F)(F)F.O=C([O-])c1ccccn1.[Fe+2].[Ru+2].c1ccc(-c2ccccn2)nc1.c1ccc(P(c2ccccc2)[c-]2cccc2)cc1.c1ccc(P(c2ccccc2)[c-]2cccc2)cc1 [[Ru(pic)(bipy)(dppf)]PF6 (3), [Ru(pic)(bipy)(dppf)]PF6]
4. F[P-](F)(F)(F)(F)F.O=C([O-])c1ccccn1.[Ru+2].c1ccc(-c2ccccn2)nc1.c1ccc(P(CCCP(c2ccccc2)c2ccccc2)c2ccccc2)cc1 [[Ru(pic)(bipy)(dppp)]PF6 (4), [Ru(pic)(bipy)(dppp)]PF6]
5. F[P-](F)(F)(F)(F)F.O=C([O-])c1ccccn1.[Ru+2].c1ccc(-c2ccccn2)nc1.c1ccc(P(CCP(c2ccccc2)c2ccccc2)c2ccccc2)cc1 [[Ru(pic)(bipy)(dppe)]PF6 (2), [Ru(pic)(bipy)(dppe)]PF6]

[out]
1. 5.3
2. 11.9
3. 3
4. 1.5
5. 19
